system: PAK7 (human)
assay.name: Caliper, Mobility shift assay off-chip
study.conditions: compound 0.02 µM
# inhibition values compiled below
Only the number, expressed in %, is required.

Solved cases below.
>  <smiles.data>
COc1cc2c(Oc3ccc4[nH]c(C)cc4c3F)ncnc2cc1OCCCN1CCCC1

>  <inhibition (%)>
-5.8

$$$$
>  <smiles.data>
CNC(=O)c1ccccc1Sc1ccc2c(/C=C/c3ccccn3)n[nH]c2c1

>  <inhibition (%)>
7

$$$$
>  <smiles.data>
Cc1ccc(Nc2nccc(N(C)c3ccc4c(C)n(C)nc4c3)n2)cc1S(N)(=O)=O

>  <inhibition (%)>
9

$$$$

Proceeding to the next compound to report its inhibition.
Would you kindly share the measured inhibition for CNC(=O)c1cc(Oc2ccc(NC(=O)Nc3ccc(Cl)c(C(F)(F)F)c3)cc2)ccn1 ? -2.5
